- EXPERIMENTAL SYSTEM: NADPH oxidase 2 (Homo sapiens)
- PROTOCOL: NOX2-dependent H2O2 signal modulators, primary screen, NOX inhibitor project, cell-based, HEK293-NOX2, PMA-stimulated, Amplex Red fluorescence (AID 1159); further: test concentration not given here
- ASSAY CONTEXT: 45 min, higher = more signal, called active from +8 up or from −8 down
METRIC: z-score
I only need the number, thanks.

MOLECULE	z-score
O=C(O)[C@@H]1C[C@@H]2C(=O)N3CCC[C@H]3C(=O)N2[C@@H]1c1cccc(OCCO)c1	1.29
CCOC(=O)C1=CCN(S(=O)(=O)c2ccc(C)cc2)C1c1ccccc1 (stereo not drawn)	0.532
CN1C(=O)C2C(C1=O)C1C=C(CCCO)C2C(C2CC2)N1Cc1cc2c(cc1Br)OCO2 (stereo not drawn)	-0.84

Using the record for COCC(=C=CC[C@@H](O)c1ccc(OCCO)cc1)CCO , state its measured z-score.
-2.03

Using the record for Cc1ccc(N2C(=O)c3ccccc3[C@](C)(C(=O)NCc3ccccc3)[C@@H]2c2ccc(CO)cc2)nc1 , state its measured z-score.
0.37

Using the record for CC(=O)NCCCC[C@@H]1NC(=O)[C@H]2C[C@@H](C(=O)NCCCCCNC(=O)CS)[C@@H](c3cccc(OCCO)c3)N2C1=O , state its measured z-score.
1.87

Using the record for COCC(=C=CC[C@H](O)c1cccc(OCCO)c1)C[C@H](O)COCc1ccccc1 , state its measured z-score.
-0.436

Using the record for C=CCNC(=O)[C@H]1[C@@H]2C(=O)O[C@@H](c3ccccc3)[C@@H](c3ccccc3)N2[C@@H](c2ccc(OCCO)cc2)[C@]12C(=O)Nc1ccc(C#CCNC(N)=O)cc12 , state its measured z-score.
1.91
